Assay: in vitro
Settings: human, MT4 cells
Description: Selectivity index, ratio of CC50 for cytotoxicity against human MT4 cells to EC50 for antiviral activity against NNRTI-resistant HIV-1 harboring E138K mutant infected in human MT4 cells
measurement-type: selectivity ratio

Below is a list of compounds. For each, state its recorded selectivity ratio.
1. Cc1cc(C#N)cc(C)c1Oc1nc(Nc2ccc(C#N)cc2)nc2c1CN(C(=O)c1ccc(C(F)(F)F)cc1)CC2
2. Cc1cc(C#N)cc(C)c1Oc1nc(Nc2ccc(C#N)cc2)nc2c1CN(C(=O)c1ccc(C#N)cc1)CC2
3. Cc1cc(C#N)cc(C)c1Oc1nc(Nc2ccc(C#N)cc2)nc2c1CN(Cc1ccc(S(C)(=O)=O)cc1)CC2
4. Cc1cc(C#N)cc(C)c1Oc1nc(Nc2ccc(C#N)cc2)nc2c1CN(C(=O)c1cccc(C#N)c1)CC2
5. Cc1ccc(C(=O)N2CCc3nc(Nc4ccc(C#N)cc4)nc(Oc4c(C)cc(C#N)cc4C)c3C2)cc1
6. Cc1cc(C#N)cc(C)c1Oc1nc(Nc2ccc(C#N)cc2)nc2c1CN(C(=O)c1cccc(C(F)(F)F)c1)CC2

Result:
> 1670
> 5090
> 5110
> 5950
> 10300
> 1450

Below is a list of compounds. For each, state its recorded selectivity ratio.
1. Cc1cc(C#N)cc(C)c1Oc1nc(Nc2ccc(C#N)cc2)nc2c1CN(Cc1ccc(S(N)(=O)=O)cc1)CC2
2. Cc1cc(C#N)cc(C)c1Oc1nc(Nc2ccc(C#N)cc2)nc2c1CN(C(=O)c1cccc([N+](=O)[O-])c1)CC2
3. COC(=O)c1ccc(C(=O)N2CCc3nc(Nc4ccc(C#N)cc4)nc(Oc4c(C)cc(C#N)cc4C)c3C2)cc1
4. Cc1cc(C#N)cc(C)c1Oc1nc(Nc2ccc(C#N)cc2)nc2c1CN(C(=O)c1ccc([N+](=O)[O-])cc1)CC2

Result:
1: > 5570; 2: > 5330; 3: > 817; 4: > 6960

###

Give selectivity ratio for every item shown.
Test: in vitro
Conditions: human, MT4 cells
Description: Selectivity index, ratio of CC50 for cytotoxicity against human MT4 cells to EC50 for antiviral activity against NNRTI-resistant HIV-1 harboring Y181C mutant infected in human MT4 cells

smiles-code: Cc1cc(C#N)cc(C)c1Oc1nc(Nc2ccc(C#N)cc2)nc2c1CN(C(=O)c1ccc([N+](=O)[O-])cc1)CC2
measurement-type: selectivity ratio
recorded-measurement: > 4740
//
smiles-code: Cc1cc(C#N)cc(C)c1Oc1nc(Nc2ccc(C#N)cc2)nc2c1CN(Cc1ccc(S(C)(=O)=O)cc1)CC2
measurement-type: selectivity ratio
recorded-measurement: > 5360
//
smiles-code: Cc1cc(C#N)cc(C)c1Oc1nc(Nc2ccc(C#N)cc2)nc2c1CN(Cc1ccc(S(N)(=O)=O)cc1)CC2
measurement-type: selectivity ratio
recorded-measurement: > 6430

Here is the next item to consider.
response.value for Cc1ccc(C(=O)N2CCc3nc(Nc4ccc(C#N)cc4)nc(Oc4c(C)cc(C#N)cc4C)c3C2)cc1 (field: selectivity ratio) = > 4890

###

Assay: in vitro
Conditions: human, MT4 cells
Description: Selectivity index, ratio of CC50 for cytotoxicity against human MT4 cells to EC50 for antiviral activity against NNRTI-resistant HIV-1 harboring K103N and Y181C mutant infected in human MT4 cells
measurement-type: selectivity ratio

Example results:
smiles-code: Cc1cc(C#N)cc(C)c1Oc1nc(Nc2ccc(C#N)cc2)nc2c1CN(C(=O)c1ccc([N+](=O)[O-])cc1)CC2
selectivity ratio: > 1470
--
smiles-code: Cc1cc(C#N)cc(C)c1Oc1nc(Nc2ccc(C#N)cc2)nc2c1CN(Cc1ccc(S(N)(=O)=O)cc1)CC2
selectivity ratio: > 2460
--
smiles-code: Cc1ccc(C(=O)N2CCc3nc(Nc4ccc(C#N)cc4)nc(Oc4c(C)cc(C#N)cc4C)c3C2)cc1
selectivity ratio: > 1340

Here is the next item to consider.
response.value for Cc1cc(C#N)cc(C)c1Oc1nc(Nc2ccc(C#N)cc2)nc2c1CN(Cc1ccc(S(C)(=O)=O)cc1)CC2 (field: selectivity ratio) = > 1880
